Below, each entry is listed with its recorded EC50.
Test system: Plasmodium falciparum
Assay: Antimicrobial activity against chloroquine-resistant Plasmodium falciparum Smith
Assay type: functional
Settings: read-out: ED50 (the source's name)
result.type: EC50 (µg/mL)

compound	unit.annotation	number
COC(=O)[C@]12OC[C@]34[C@H]([C@@H](O)[C@@H]1O)[C@@]1(C)CC(=O)C(O)=C(C)[C@@H]1C[C@H]3OC(=O)[C@H](OC(=O)C=C(C)C)[C@@H]24	µg/mL	0.00758
CCCCCC/C=C/C(=O)O[C@H]1C(=O)O[C@@H]2C[C@H]3C(C)=C(O)C(=O)C[C@]3(C)[C@H]3[C@@H](O)[C@H](O)[C@@]4(C(=O)OC)OC[C@]32[C@@H]14	µg/mL	0.0617
COC(=O)[C@@]12OC[C@]34[C@H]([C@@H](O)[C@@H]1O)[C@@]1(C)C=C(O[C@@H]5O[C@H](CO)[C@@H](O)[C@H](O)[C@H]5O)C(=O)[C@@H](C)[C@@H]1C[C@H]3OC(=O)[C@H](OC(=O)C=C(C)C)[C@@H]24 [BRUCEOSIDE A]	µg/mL	0.581
COC(=O)[C@@]12OC[C@]34[C@H]([C@@H](O)[C@@H]1O)[C@@]1(C)CC(=O)C(O)=C(C)[C@@H]1C[C@H]3OC(=O)[C@H](O)[C@@H]24 [BRUCEOLIDE]	µg/mL	0.0752

Source of measurements: ChEMBL document CHEMBL1150728
